Measured values drawn from patent US5168101A for this set.

Exercise: for every item that follows, state its recorded (ii) Effect of increasing of blood pressure in guinea pig.
Tested on: increasing of blood pressure in guinea pigs
Protocol notes: Stimulatory effect on increasing of blood pressure in guinea pigs (agonistic effect on TXA2)
Format: in vivo
Measurement setup: 100 μg/kg, i.v. (n = 2~4)
Excerpt: For example, in a standard laboratory test, the effects were possible to be confirmed by (i) inhibitory effect on increasing of blood pressure induced by STA2 in guinea pigs (antagonistic effect) and (ii) stimulatory effect on increasing of blood pressure in guinea pigs (agnostic effect). […]

Problem: Name the reported (ii) Effect of increasing of blood pressure in guinea pig value associated with the compound Cc1ccc(S(=O)(=O)N[C@H]2[C@H]3CC[C@H](C3)[C@@H]2C/C=C\CCCC(=O)O)cc1 [The compared compound, reference compound]
Solution: 36 mmHg

Problem: Now the same for `Cc1ccc(S(=O)(=O)N[C@H]2[C@H]3CC[C@H](C3)[C@@H]2C/C=C\CCCC(=O)NCC(=O)O)cc1`
Solution: 9 mmHg

Problem: Now the same for `NC(=O)CCC/C=C\[C@@H]1[C@H]2CC[C@H](C2)[C@H]1CNS(=O)(=O)c1ccc(Br)cc1`
Solution: 6 mmHg

Problem: Now the same for `Cc1ccc(S(=O)(=O)N[C@H]2[C@H]3CC[C@H](C3)[C@@H]2C/C=C\CCCC(N)=O)cc1`
Solution: 9 mmHg

Problem: Now the same for `CC(C)[C@@H]1CC[C@@H](C)C[C@H]1OC(=O)CCC/C=C\[C@@H]1[C@H]2CC[C@H](C2)[C@H]1CNS(=O)(=O)c1ccc(Br)cc1`
Solution: 1 mmHg

Problem: Now the same for Cc1ccc(S(=O)(=O)N[C@H]2[C@H]3CC[C@H](C3)[C@@H]2C/C=C\CCCC(=O)NC(CCC(=O)O)C(=O)O)cc1 (stereo partly drawn)
Solution: 7 mmHg

Problem: Now the same for Cc1ccc(S(=O)(=O)N[C@H]2[C@H]3CC[C@H](C3)[C@@H]2C/C=C\CCCC(=O)NC(C)C(=O)O)cc1 (stereo partly drawn)
Solution: 11 mmHg

Problem: Now the same for `CCCCCCCCOC(=O)CCC/C=C\[C@@H]1[C@H]2CC[C@H](C2)[C@H]1CNS(=O)(=O)c1ccc(Br)cc1`
Solution: 1 mmHg

Problem: Now the same for `Cc1ccc(S(=O)(=O)N[C@H]2[C@H]3CC[C@H](C3)[C@@H]2C/C=C\CCCC(=O)N[C@@H](CCCCN)C(=O)O)cc1`
Solution: 7 mmHg
